- assayed system: Human HDAC5 (Homo sapiens)
- Construct: full length with C-terminal His tag, MW=51.1 kDa; His (C); host or cells: baculovirus expression system
- Sequence (Q9UQL6 656-1122 limits assumed): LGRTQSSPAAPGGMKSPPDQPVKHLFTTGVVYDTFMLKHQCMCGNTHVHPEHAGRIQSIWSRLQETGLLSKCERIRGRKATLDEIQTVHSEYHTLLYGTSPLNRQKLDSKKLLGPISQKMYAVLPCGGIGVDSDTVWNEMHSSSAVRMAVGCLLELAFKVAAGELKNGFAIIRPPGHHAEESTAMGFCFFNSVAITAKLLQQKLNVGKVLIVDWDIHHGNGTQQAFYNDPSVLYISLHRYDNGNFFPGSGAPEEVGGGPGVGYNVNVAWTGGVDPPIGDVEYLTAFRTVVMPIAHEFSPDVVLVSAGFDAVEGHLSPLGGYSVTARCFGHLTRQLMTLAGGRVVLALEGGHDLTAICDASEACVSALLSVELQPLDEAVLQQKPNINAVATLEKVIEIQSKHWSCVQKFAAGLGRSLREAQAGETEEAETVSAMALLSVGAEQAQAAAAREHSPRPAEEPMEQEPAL
- protocol details: HDAC5 biochemical assay, class IIa-specific substrate
- condition details: read-out: HDAC Isoform IC50 (nM) 5
measurement label: IC50

Prompt line: Looking for the measured IC50 of FC(F)(F)c1nc(-c2ccc(CN(c3ccccn3)c3ccccn3)s2)no1 , can you help?
Response line: ≤ 10000 nM

Prompt line: # IC50 lookup, item Cc1cnc(N(Cc2ccc(-c3noc(C(F)(F)F)n3)s2)c2cnccn2)nc1
Response line: ≤ 10000 nM

Prompt line: Item under review: O=C(c1cnnc(N(Cc2ccc(-c3noc(C(F)(F)F)n3)s2)c2cnccn2)c1)N1C[C@@H]2C[C@H]1CO2 . Reported IC50?
Response line: ≤ 1000 nM

Prompt line: Param item = COc1cnc(N(Cc2ccc(-c3noc(C(F)(F)F)n3)s2)c2cc(C(F)(F)F)cnn2)cn1 ; retrieve measured IC50.
Response line: ≤ 10000 nM

Values from patent US20210038607A1
